Every entry's value here was drawn from patent US20090281099A1.

target: 5HT-Transporter (Homo sapiens, UniProt P31645); construct: Human platelet membranes (Oceanix Biosciences Corporation, Hanover, Md., USA) were thawed; tissue Oceanix Biosciences Corporation; host or cells: human platelet membranes; experiment: Binding experiment for the 5HT-transporter ([3H]paroxetine, human platelet membranes); settings: [3H]paroxetine 0.5 nM, read-out: h-5HTT pIC50 (converted)
Sequence (P31645 whole entry): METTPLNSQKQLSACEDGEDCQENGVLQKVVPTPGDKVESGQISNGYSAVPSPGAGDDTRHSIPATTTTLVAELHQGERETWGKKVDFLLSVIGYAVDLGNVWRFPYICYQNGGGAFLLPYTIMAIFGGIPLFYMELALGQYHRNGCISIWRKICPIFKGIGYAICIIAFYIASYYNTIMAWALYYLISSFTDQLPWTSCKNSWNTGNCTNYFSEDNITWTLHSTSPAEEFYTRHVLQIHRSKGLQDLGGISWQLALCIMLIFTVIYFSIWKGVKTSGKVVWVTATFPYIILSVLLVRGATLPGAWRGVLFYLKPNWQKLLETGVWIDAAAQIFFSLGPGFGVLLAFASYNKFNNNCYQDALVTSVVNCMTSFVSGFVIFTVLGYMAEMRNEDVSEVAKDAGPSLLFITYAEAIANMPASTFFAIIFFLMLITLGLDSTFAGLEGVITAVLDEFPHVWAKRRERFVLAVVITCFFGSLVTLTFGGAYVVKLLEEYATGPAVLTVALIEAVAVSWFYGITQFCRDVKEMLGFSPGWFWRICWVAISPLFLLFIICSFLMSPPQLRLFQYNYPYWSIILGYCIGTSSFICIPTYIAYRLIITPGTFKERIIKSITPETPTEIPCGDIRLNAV
Known IC50 of a selection of molecules
Give just the numeric value; µM need not be written.

Worked examples follow.
Please report the recorded IC50 for NCc1ccc(Cn2ccnc(N3CCN(CCOc4ccc(F)cc4)CC3)c2=O)cc1 . 1.26

Consider the molecule shown here: O=C(Cn1ccnc(NC2CCN(CCOc3ccccc3)CC2)c1=O)NCc1ccc(F)cc1 What is its recorded IC50? 7.94

Fill in the blank: the reported IC50 of O=c1c(NC2CCN(CCOc3ccccc3)CC2)nccn1-c1ccc(N2CCC(N3CCCC3)CC2)cc1 is ____. 3.16

So what's the measured IC50 for this one? O=c1c(NC2CCN(CCOc3ccccc3)CC2)nccn1Cc1cccc(Br)c1 1.58

Recorded IC50 of O=C(Cn1ccnc(NC2CCN(CCOc3ccccc3)CC2)c1=O)N1CCC(Cc2ccccc2)CC1 , please. 1

Using the record for O=C(Cn1ccnc(NC2CCN(CCOc3ccccc3)CC2)c1=O)NCc1ccccc1 , report its IC50. 7.94

Now look at this one.
Looking for the measured IC50 of O=c1c(NC2CCN(CCOc3ccccc3)CC2)nccn1Cc1ccc(Br)cc1 , can you help? 0.794

* * *

IC50 by entry:
biological target: hα2C receptor (Homo sapiens, UniProt P18825); construct: expressed in transfected cells; experiment: Radioligand binding experiment for α2C-adrenoceptor ([3H]-raulwolscine, CHO cell membranes); conditions: [3H]raulwolscine 1 nM, membranes of CHO cells transfected with human α2C receptor; read-out: h-α2C pIC50 (converted)
Sequence (P18825 whole entry): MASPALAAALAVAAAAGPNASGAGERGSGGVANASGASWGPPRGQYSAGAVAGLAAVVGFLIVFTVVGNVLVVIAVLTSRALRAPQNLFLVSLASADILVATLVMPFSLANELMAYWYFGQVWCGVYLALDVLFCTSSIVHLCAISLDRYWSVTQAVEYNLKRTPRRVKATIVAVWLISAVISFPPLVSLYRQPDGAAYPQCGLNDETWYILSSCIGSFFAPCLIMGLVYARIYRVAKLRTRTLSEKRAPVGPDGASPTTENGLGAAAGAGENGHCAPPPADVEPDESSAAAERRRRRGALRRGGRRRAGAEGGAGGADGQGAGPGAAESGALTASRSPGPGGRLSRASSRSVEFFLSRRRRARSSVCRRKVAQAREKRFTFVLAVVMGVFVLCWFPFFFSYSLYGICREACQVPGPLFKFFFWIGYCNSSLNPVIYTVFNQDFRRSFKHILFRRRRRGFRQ
Unit nM implied. Number only.

Hello, I am looking for reported IC50 with hα2C receptor (Homo sapiens, UniProt P18825) for O=c1c(N2CCN(CCOc3ccc(F)cc3)CC2)nccn1Cc1ccccc1 [Compound 11-1] . Could you help? 200

***
Notebook entry, hα2C receptor (Homo sapiens, UniProt P18825) assay: IC50 of O=C1c2ccccc2C(=O)N1CCCn1ccnc(N2CCN(CCOc3ccc(F)cc3)CC2)c1=O [Compound 8-2] = ? 39.8

For hα2C receptor (Homo sapiens, UniProt P18825), provide IC50 of O=c1c(NC2CCN(CCOc3ccccc3)CC2)nccn1CC1CCCCC1 [Compound 5-3] please. 25.1

Param readout= IC50; system= hα2C receptor (Homo sapiens, UniProt P18825); entry= CCOC(=O)CCCCn1ccnc(NC2CCN(CCOc3ccccc3)CC2)c1=O [Compound 3-3] ; returns value. 15.8

* * *

Recorded measurements of IC50, one per entry
target: 5HT-Transporter (Homo sapiens); construct: Human platelet membranes (Oceanix Biosciences Corporation, Hanover, Md., USA) were thawed; tissue Oceanix Biosciences Corporation; host or cells: human platelet membranes; assay: Binding experiment for the 5HT-transporter ([3H]paroxetine, human platelet membranes); conditions: [3H]paroxetine 0.5 nM, read-out: h-5HTT pIC50 (converted)

Below: 2 molecules and their reported IC50.
Reported IC50, molecule O=c1c(NC2CCN(CCOc3ccccc3)CC2)nccn1Cc1ccncc1 [Compound 6-2] : ____ > 10 µM

Any idea what its IC50 is? The molecule is O=c1c(N2CCN(CCOc3ccc(F)cc3)CC2)nccn1Cc1ccccc1 [Compound 11-1] > 10 µM

Turning to the following molecule.
Would you mind telling me what IC50 value was observed for CC(=O)Cn1ccnc(NC2CCN(CCOc3ccccc3)CC2)c1=O [Compound 5-4] ? > 10 µM
